Each recorded value in this set is attributed to ChEMBL document CHEMBL4715913.

- system: Bromodomain-containing protein 3 (Homo sapiens)
- assay-comment: Binding affinity to human partial length BRD3-BD2 (G306 to P416 residues) expressed in bacterial expression system by BROMOscan method
test-readout: pKd
Formally, pKd is defined as -log10 of the concentration c, with c in mol/L.

## Task I'd like to know its pKd. The molecule in question is CN1C(=O)c2c(F)cccc2Oc2cc(N[C@H]3CC[C@H](O)CC3)ncc21
## Result 6.85

* * *

- system: Bromodomain-containing protein 2 (Homo sapiens, UniProt P25440)
- assay-comment: Binding affinity to human partial length BRD2-BD1 (K71 to N194 residues) expressed in bacterial expression system by BROMOscan method
test-readout: pKd
# reply with the number alone; pKd is -log10 of concentration in mol/L

## Task Request the reported pKd associated with CN1C(=O)c2c(F)cccc2Oc2cc(N[C@H]3CC[C@H](O)CC3)ncc21
## Result 7.15

* * *

- system: CREB-binding protein (Homo sapiens, UniProt Q92793)
- Sequence (Q92793 whole entry, the tested form may be a part): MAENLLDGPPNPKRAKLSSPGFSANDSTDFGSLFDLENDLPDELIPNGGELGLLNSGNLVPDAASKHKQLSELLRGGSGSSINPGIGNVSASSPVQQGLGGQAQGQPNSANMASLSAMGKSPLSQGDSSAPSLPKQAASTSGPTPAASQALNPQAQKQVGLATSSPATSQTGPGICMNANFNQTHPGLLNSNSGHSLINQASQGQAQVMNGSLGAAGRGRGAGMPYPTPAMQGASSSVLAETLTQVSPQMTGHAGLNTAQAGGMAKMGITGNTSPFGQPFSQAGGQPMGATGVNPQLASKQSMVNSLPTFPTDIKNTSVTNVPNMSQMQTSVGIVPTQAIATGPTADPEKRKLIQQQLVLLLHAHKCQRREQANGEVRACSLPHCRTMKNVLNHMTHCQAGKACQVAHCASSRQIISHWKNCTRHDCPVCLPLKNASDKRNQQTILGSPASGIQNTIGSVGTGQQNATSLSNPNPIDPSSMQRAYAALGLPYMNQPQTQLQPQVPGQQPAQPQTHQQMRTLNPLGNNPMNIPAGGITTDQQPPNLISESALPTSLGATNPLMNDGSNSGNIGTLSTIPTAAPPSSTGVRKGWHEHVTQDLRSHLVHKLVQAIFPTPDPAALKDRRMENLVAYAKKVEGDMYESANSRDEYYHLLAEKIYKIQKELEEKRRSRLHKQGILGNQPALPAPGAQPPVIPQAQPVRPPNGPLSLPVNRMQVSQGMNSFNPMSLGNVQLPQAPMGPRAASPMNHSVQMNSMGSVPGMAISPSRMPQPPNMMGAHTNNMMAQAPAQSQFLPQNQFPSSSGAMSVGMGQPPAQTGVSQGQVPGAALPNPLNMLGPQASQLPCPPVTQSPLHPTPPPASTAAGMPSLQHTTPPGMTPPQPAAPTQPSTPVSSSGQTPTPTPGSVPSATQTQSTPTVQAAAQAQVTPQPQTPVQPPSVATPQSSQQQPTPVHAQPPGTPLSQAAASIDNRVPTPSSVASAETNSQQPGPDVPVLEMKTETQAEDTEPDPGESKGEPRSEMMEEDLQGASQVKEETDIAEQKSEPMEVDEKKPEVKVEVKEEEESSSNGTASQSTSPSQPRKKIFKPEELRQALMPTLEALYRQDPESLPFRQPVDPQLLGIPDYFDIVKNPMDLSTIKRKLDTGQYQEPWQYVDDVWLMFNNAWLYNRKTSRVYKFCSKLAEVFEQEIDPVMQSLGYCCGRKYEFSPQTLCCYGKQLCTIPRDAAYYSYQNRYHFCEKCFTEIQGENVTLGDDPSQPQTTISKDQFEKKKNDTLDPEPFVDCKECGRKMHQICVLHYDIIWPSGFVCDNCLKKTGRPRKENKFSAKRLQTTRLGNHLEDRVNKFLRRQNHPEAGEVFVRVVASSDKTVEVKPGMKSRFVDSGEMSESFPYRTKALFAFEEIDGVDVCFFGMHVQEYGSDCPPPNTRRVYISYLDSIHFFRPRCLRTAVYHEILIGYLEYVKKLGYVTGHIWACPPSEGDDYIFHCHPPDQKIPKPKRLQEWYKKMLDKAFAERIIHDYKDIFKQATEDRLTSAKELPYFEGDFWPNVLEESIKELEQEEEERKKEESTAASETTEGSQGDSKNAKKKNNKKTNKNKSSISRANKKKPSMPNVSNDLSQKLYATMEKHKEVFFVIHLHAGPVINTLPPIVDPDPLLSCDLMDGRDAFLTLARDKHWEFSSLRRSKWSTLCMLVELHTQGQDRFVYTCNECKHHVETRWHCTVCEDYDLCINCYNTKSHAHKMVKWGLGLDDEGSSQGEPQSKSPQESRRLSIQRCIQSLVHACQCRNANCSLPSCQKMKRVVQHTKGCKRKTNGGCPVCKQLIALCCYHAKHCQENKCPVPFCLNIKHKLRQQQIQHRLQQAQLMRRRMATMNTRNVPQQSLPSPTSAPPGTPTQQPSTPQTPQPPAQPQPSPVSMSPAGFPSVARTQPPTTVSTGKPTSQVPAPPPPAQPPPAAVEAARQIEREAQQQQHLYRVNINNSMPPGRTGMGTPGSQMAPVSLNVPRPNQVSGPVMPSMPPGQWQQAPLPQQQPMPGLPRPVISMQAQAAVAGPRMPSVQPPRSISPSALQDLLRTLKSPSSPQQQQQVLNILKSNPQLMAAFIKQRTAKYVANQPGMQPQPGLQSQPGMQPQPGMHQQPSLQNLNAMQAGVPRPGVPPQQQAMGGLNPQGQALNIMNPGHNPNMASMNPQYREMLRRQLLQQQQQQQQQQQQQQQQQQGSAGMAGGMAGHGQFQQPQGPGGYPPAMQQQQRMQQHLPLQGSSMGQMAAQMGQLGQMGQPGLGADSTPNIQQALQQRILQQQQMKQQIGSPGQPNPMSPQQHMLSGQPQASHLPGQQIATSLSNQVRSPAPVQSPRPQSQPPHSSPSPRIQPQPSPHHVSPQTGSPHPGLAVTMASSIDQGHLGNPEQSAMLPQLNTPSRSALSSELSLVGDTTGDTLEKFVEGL
- assay-comment: Binding affinity to human partial length CREBBP (R1081 to G1197 residues) expressed in bacterial expression system by BROMOscan method
test-readout: Kd (µM)
Output spec: scalar in µM, unitless text.

compound	Kd (µM)
CCNC(=O)C[C@@H]1N=C(c2ccc(Cl)cc2)c2cc(OC)ccc2-n2c(C)nnc21	83

Alright, here's another compound for you.
## Task Provide value of Kd for this record tested with CREB-binding protein (Homo sapiens, UniProt Q92793): CN1C(=O)c2c(F)cccc2Oc2cc(N[C@H]3CC[C@H](O)CC3)ncc21
## Result 1.9

* * *

- system: Mitogen-activated protein kinase 7 (Homo sapiens)
- Sequence (Q13164 whole entry): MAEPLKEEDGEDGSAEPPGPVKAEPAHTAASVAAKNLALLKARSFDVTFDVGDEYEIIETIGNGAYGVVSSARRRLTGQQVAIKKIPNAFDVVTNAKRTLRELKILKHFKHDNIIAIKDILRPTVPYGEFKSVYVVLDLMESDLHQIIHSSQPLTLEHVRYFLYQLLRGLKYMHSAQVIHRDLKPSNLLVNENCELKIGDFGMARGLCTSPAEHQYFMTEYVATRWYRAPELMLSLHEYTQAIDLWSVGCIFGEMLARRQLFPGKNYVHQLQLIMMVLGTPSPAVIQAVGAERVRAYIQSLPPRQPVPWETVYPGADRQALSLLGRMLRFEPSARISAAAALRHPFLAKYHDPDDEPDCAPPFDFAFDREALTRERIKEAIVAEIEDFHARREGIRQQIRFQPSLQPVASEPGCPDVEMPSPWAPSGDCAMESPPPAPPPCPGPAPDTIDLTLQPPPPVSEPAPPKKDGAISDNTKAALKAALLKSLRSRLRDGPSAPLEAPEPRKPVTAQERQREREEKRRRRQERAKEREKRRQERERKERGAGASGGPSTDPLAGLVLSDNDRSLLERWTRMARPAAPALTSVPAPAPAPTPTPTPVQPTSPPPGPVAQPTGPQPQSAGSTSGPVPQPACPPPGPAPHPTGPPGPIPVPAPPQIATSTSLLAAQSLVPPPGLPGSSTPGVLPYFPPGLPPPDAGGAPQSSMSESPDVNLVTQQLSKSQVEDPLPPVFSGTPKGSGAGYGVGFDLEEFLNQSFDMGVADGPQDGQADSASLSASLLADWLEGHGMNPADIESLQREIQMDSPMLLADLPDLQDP
- assay-comment: Inhibition of recombinant human ERK5 using myelin basic protein as substrate by [gamm33P]ATP based HotSpot radiometric assay
log10 of IC50 for assorted compounds
Lab note - IC50 converted to log10 from values in nM.

compound	log10 of IC50
COc1cccc2c1Oc1cc(N[C@H]3CC[C@H](O)CC3)ncc1N(C)C2=O	3.04

## Task Param readout= log10 of IC50; system= Mitogen-activated protein kinase 7 (Homo sapiens); entry= CN1C(=O)c2c(F)ccc(F)c2Oc2cc(N[C@H]3CC[C@H](O)CC3)ncc21 ; returns value.
## Result 2.33

## Task Let us now turn to CN1C(=O)c2c(F)cccc2Oc2cc(N[C@H]3CC[C@H](O)CC3)ncc21
## Result 2.12

## Task Consider next the compound CN1C(=O)c2ccccc2N(C)c2cc(N[C@H]3CC[C@H](O)CC3)ncc21 in the same way.
## Result 1.95

## Task Then this compound: CN1C(=O)c2cccc(Cl)c2Oc2cc(N[C@H]3CC[C@H](O)CC3)ncc21
## Result 3.02

* * *

- system: Voltage-gated inwardly rectifying potassium channel KCNH2 (Homo sapiens)
- Sequence (Q12809 whole entry): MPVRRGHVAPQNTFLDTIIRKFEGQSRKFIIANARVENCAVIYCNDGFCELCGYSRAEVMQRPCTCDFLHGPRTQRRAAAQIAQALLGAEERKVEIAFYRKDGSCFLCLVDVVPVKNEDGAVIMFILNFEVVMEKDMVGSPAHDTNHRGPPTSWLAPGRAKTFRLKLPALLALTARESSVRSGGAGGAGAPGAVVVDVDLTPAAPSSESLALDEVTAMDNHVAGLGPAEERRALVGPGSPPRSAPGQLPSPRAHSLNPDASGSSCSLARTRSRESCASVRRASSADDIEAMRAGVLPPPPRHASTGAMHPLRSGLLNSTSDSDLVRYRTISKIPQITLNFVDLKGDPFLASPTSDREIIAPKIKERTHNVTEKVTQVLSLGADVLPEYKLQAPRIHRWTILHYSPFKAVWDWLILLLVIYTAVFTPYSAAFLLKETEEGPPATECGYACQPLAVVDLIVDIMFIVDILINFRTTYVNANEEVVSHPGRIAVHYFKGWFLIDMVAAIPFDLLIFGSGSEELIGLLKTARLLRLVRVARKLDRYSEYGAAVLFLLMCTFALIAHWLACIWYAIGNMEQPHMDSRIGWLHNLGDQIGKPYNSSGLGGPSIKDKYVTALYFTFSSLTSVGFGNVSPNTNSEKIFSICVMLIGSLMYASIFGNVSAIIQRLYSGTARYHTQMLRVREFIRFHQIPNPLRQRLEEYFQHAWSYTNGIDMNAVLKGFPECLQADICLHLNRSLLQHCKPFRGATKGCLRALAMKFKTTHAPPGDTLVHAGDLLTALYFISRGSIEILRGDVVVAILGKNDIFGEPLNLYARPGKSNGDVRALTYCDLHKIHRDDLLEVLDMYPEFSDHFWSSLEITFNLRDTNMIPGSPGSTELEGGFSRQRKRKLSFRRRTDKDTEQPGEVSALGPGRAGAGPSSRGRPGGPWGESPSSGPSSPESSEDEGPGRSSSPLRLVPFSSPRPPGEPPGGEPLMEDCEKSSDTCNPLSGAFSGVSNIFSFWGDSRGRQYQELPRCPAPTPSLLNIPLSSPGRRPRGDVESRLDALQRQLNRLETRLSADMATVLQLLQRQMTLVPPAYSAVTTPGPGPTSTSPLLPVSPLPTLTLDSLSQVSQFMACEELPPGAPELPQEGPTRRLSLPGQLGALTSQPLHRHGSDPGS
- assay-comment: Inhibition of human ERG
test-readout: IC50 (µM)
Report the figure in µM without appending any unit label.

## Task Please report the recorded IC50 for CCOc1cc(C(=O)N2CCC(N3CCCC3)CC2)ccc1Nc1cc2c(cn1)N(C)C(=O)c1ccccc1N2C .
## Result 0.32
